Consider the following binders and their measured fold change of affinity readings.
Molecular target: T1, Human CD3eg linker (human)
T1 construct: Single chain: epsilon and gamma subunits of human CD3 joined by a 29-mer linker, Flag-tag at the C-terminus; also called recombinant human CD3
T1 chain: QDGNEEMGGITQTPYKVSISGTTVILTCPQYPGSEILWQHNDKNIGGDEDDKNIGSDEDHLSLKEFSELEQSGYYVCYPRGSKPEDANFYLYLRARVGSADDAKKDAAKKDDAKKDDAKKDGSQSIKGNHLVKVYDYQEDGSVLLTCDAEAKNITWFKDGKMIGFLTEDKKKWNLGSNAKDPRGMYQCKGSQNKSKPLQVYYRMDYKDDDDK
Test: Biacore SPR, vs template H183/L072
Record the value in fold, omitting the unit from your answer.

binder	u	fold change of affinity
H183/L072 VH S100aP (antibody, name in Kabat numbering, V domains shown) VH: QVQLVESGGGLVQPGRSLRLSCAASGFTFSNAWMHWVRQAPGKGLEWVAQIKDKGNAYAAYYAPSVKGRFTISRDDSKNSIYLQMNSLKTEDTAVYYCHYVHYASAPTVLPAFGVDAWGQGTTVTVSS VL: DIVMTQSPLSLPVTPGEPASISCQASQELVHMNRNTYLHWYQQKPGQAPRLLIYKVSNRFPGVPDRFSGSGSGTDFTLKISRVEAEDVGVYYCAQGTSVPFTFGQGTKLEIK	fold	1.1
H183/L072 VH W33L (antibody, name in Kabat numbering, V domains shown) VH: QVQLVESGGGLVQPGRSLRLSCAASGFTFSNALMHWVRQAPGKGLEWVAQIKDKGNAYAAYYAPSVKGRFTISRDDSKNSIYLQMNSLKTEDTAVYYCHYVHYASASTVLPAFGVDAWGQGTTVTVSS VL: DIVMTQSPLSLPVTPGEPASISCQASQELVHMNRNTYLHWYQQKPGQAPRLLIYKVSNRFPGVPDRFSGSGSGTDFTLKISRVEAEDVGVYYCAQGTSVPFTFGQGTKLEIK	fold	0
H183/L072 VH T28H (antibody, name in Kabat numbering, V domains shown) VH: QVQLVESGGGLVQPGRSLRLSCAASGFHFSNAWMHWVRQAPGKGLEWVAQIKDKGNAYAAYYAPSVKGRFTISRDDSKNSIYLQMNSLKTEDTAVYYCHYVHYASASTVLPAFGVDAWGQGTTVTVSS VL: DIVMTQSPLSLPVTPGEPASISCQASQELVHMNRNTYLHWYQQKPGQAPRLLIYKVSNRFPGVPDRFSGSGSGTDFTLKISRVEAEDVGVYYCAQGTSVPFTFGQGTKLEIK	fold	0.9
H183/L072 VH K52N (antibody, name in Kabat numbering, V domains shown) VH: QVQLVESGGGLVQPGRSLRLSCAASGFTFSNAWMHWVRQAPGKGLEWVAQINDKGNAYAAYYAPSVKGRFTISRDDSKNSIYLQMNSLKTEDTAVYYCHYVHYASASTVLPAFGVDAWGQGTTVTVSS VL: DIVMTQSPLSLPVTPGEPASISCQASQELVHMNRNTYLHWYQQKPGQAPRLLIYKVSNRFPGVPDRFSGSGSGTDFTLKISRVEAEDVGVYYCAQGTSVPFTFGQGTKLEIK	fold	0
H183/L072 VH I51Y (antibody, name in Kabat numbering, V domains shown) VH: QVQLVESGGGLVQPGRSLRLSCAASGFTFSNAWMHWVRQAPGKGLEWVAQYKDKGNAYAAYYAPSVKGRFTISRDDSKNSIYLQMNSLKTEDTAVYYCHYVHYASASTVLPAFGVDAWGQGTTVTVSS VL: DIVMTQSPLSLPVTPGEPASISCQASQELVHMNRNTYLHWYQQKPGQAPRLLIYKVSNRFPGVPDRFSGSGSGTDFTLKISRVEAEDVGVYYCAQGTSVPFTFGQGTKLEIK	fold	0

Consider the record given below.
Item H183/L072 VH W33Q (antibody, name in Kabat numbering, V domains shown) VH: QVQLVESGGGLVQPGRSLRLSCAASGFTFSNAQMHWVRQAPGKGLEWVAQIKDKGNAYAAYYAPSVKGRFTISRDDSKNSIYLQMNSLKTEDTAVYYCHYVHYASASTVLPAFGVDAWGQGTTVTVSS VL: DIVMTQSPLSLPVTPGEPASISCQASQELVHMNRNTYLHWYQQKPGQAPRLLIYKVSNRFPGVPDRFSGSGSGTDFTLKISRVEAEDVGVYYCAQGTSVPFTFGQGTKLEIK has what recorded fold change of affinity? 0
